Cited source: patent US6136813A

Assay: Blood levels of penciclovir in Pekin ducks after oral dosing with penciclovir or famciclovir
Assay type: in vivo
Settings: duck, 100 mg/kg, 120 min, oral penciclovir 100 mg/kg, Duck No. 142
measurement.kind: concentration at 2 h (µM)
Give bare numbers, in µM.

So what's the measured concentration at 2 h for this one? Nc1nc2c(ncn2CCC(CO)CO)c(=O)[nH]1 [penciclovir]
18

----------
Test: Blood levels of penciclovir in Pekin ducks after oral dosing with penciclovir or famciclovir
Assay type: in vivo
Conditions: duck, 5 mg/kg, 120 min, oral famciclovir 5 mg/kg, Duck No. 154
measurement.kind: concentration at 2 h (nM)
One number for each entry, in nM.

So what's the measured concentration at 2 h for this one? `CC(=O)OCC(CCn1cnc2cnc(N)nc21)COC(C)=O`
2000
